These measurements were taken from patent US10273222B2.

# assayed-system: JMJD2C (Homo sapiens (Human))
# Sequence (Q9H3R0 2-372): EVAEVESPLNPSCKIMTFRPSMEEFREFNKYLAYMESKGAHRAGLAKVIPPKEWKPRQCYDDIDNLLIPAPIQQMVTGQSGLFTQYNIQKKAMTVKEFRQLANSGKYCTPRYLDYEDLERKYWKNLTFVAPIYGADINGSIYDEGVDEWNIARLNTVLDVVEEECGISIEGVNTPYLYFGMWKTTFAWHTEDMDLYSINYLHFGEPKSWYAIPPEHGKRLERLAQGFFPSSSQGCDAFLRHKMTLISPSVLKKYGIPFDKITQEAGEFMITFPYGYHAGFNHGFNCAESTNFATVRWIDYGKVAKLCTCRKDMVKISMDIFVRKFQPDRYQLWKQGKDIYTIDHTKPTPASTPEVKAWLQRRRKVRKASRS
measurement-kind: IC50

In [3]: df
Out[3]:
                                   compound   endpoint_result
0  Cn1cnc(-c2cc(C(=O)O)ccn2)c1-c1ccc(OCC2CC2)cc1    100 to 1000 nM
1  Cn1nnc(-c2ccnc(-c3cn(Cc4ccccc4Cl)cn3)c2)n1  1000 to 10000 nM
2  CC(Cc1ccccc1)n1cnc(-c2cc(C(=O)O)ccn2)c1 (stereo not drawn)    100 to 1000 nM
3  O=C(O)c1ccnc(-c2cn(C3CCc4ccc(F)cc43)cn2)c1 (stereo not drawn)  1000 to 10000 nM
4  Cn1cnc(-c2cc(C(=O)O)ccn2)c1-c1ccc(N2CCCC2)cc1    100 to 1000 nM

Incoming: Request: IC50, test system JMJD2C (Homo sapiens (Human)), entry O=C(O)c1ccnc(-c2cn(CCc3cccc4ccccc34)cn2)c1
Outgoing: 100 to 1000 nM

Incoming: Request: IC50, test system JMJD2C (Homo sapiens (Human)), entry Cc1ccc(OCC2CC2)c(-c2c(-c3cc(C(=O)O)ccn3)ncn2C)c1
Outgoing: 1000 to 10000 nM

Incoming: Request: IC50, test system JMJD2C (Homo sapiens (Human)), entry O=C(O)c1ccnc(-c2cn(CCN3CCCc4ccccc43)cn2)c1
Outgoing: 100 to 1000 nM

Incoming: Request: IC50, test system JMJD2C (Homo sapiens (Human)), entry O=C(O)c1ccnc(-c2cn(CC3CCCCC3)cn2)c1
Outgoing: 100 to 1000 nM

* * *

Collected pIC50 values appear next to each entry.
# assayed-system: JMJD2C (Homo sapiens (Human))
pIC50: −log10 of the molar value.

The cases that follow already have their pIC50 on record.
                                   compound                 assayed_system  endpoint_result
0  O=C(O)c1ccnc(-c2cn(C3CCc4c(F)cccc43)cn2)c1 (stereo not drawn)  JMJD2C (Homo sapiens (Human))     6.00 to 7.00
1  FC(F)(F)Oc1ccccc1Cn1cnc(-c2cc(-c3nn[nH]n3)ccn2)c1  JMJD2C (Homo sapiens (Human))     5.00 to 6.00
2    COc1ccccc1CCn1cnc(-c2cc(C(=O)O)ccn2)c1  JMJD2C (Homo sapiens (Human))     6.00 to 7.00
3  COc1ccc(CCn2cnc(-c3cc(C(=O)O)ccn3)c2)cc1  JMJD2C (Homo sapiens (Human))           ≥ 7.00
4  Cn1cnc(-c2cc(C(=O)O)ccn2)c1-c1cccc(CO)c1  JMJD2C (Homo sapiens (Human))     5.00 to 6.00
5  c1ccc2c(c1)CC(Cn1cnc(-c3cc(-c4nn[nH]n4)ccn3)c1)C2  JMJD2C (Homo sapiens (Human))     5.00 to 6.00
6  Fc1ccc(-c2c(-c3cc(-c4nn[nH]n4)ccn3)ncn2CC(F)(F)F)cc1  JMJD2C (Homo sapiens (Human))     5.00 to 6.00
7  CN(CCn1cnc(-c2cc(C(=O)O)ccn2)c1)Cc1ccccc1  JMJD2C (Homo sapiens (Human))           ≥ 7.00

Moving on to the next compound.
Incoming: Request: pIC50, test system JMJD2C (Homo sapiens (Human)), entry CCC(c1ccccc1)n1cnc(-c2cc(C(=O)O)ccn2)c1 (stereo not drawn)
Outgoing: 6.00 to 7.00
